The following compounds are listed with their measured Ki values.
# study system: MCH receptor (Homo sapiens)
# Construct: expressed in transfected cells; host or cells: CHO cells
# Sequence (Q99705 whole entry): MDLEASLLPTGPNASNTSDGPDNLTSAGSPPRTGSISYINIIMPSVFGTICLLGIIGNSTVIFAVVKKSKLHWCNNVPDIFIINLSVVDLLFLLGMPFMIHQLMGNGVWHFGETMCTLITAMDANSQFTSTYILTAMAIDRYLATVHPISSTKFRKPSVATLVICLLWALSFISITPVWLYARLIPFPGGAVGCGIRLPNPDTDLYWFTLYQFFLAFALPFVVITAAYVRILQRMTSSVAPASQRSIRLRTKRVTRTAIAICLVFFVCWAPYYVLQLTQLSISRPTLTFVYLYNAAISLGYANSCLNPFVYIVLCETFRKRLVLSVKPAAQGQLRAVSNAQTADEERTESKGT
# run description: MCH Receptor Binding Assay
# run conditions: membranes from CHO cells expressing the MCH receptor, [125I]-MCH, SPA; class symbols; read-out: MCH Ki

compound	Ki
CCN(CC)C(=O)N1CCC(=C(c2ccc(-c3cccc(C#N)c3)cc2)c2nc3cc(F)c(C(F)(F)F)cc3[nH]2)CC1	20 to 50 nM
N#Cc1cccc(-c2ccc(C3(c4nc5cc(F)c(C(F)(F)F)cc5[nH]4)CC34CCN(CC(=O)O)CC4)cc2)c1 (stereo not shown) [Compound 28a]	20 to 50 nM
N#Cc1cccc(-c2ccc(C(=C3CCNCC3)c3nc4cc(C(F)(F)F)c(F)cc4[nH]3)cc2)c1	< 20 nM
N#Cc1cccc(-c2ccc(C(=C3CCNCC3)c3nc4c(Cl)cc(Cl)cc4[nH]3)cc2)c1	> 100 nM
CN1CCC(=C(c2ccc(-c3cccc(C#N)c3)cc2)c2nc3cc(Cl)c(Cl)cc3[nH]2)CC1	20 to 50 nM

Req: Name the recorded Ki of N#Cc1cccc(-c2ccc(C3(c4nc5cc(F)c(C(F)(F)F)cc5[nH]4)CC34CCN(c3nc5ccccc5s3)CC4)cc2)c1 (stereo not shown) [Compound 29c] , assay system MCH receptor (Homo sapiens).
Resp: > 100 nM

Req: Name the recorded Ki of N#Cc1cccc(-c2ccc(C3(c4nc5cc(F)c(C(F)(F)F)cc5[nH]4)CC34CCNCC4)cc2)c1 (stereo not shown) [Compound 24a] , assay system MCH receptor (Homo sapiens).
Resp: < 20 nM

Req: Name the recorded Ki of CC(C)(C)OC(=O)N1CCC2(CC1)CC2(c1ccc(-c2cccc(C#N)c2)cc1)c1nc2cc(Cl)c(Cl)cc2[nH]1 (stereo not shown) [Compound 23b] , assay system MCH receptor (Homo sapiens).
Resp: > 100 nM

Req: Name the recorded Ki of "N#Cc1cccc(-c2ccc(C(=C3CCN(CC4CC4)CC3)c3nc4cc(F)c(F)cc4[nH]3)cc2)c1" , assay system MCH receptor (Homo sapiens).
Resp: 50 to 100 nM

Req: Name the recorded Ki of N#Cc1cccc(-c2ccc(C3(c4nc5cc(F)c(C(F)(F)F)cc5[nH]4)CC34CCN(c3nccs3)CC4)cc2)c1 (stereo not shown) [Compound 29a] , assay system MCH receptor (Homo sapiens).
Resp: > 100 nM
